target: UniProtKB Q93009
Sequence (Q93009 whole entry): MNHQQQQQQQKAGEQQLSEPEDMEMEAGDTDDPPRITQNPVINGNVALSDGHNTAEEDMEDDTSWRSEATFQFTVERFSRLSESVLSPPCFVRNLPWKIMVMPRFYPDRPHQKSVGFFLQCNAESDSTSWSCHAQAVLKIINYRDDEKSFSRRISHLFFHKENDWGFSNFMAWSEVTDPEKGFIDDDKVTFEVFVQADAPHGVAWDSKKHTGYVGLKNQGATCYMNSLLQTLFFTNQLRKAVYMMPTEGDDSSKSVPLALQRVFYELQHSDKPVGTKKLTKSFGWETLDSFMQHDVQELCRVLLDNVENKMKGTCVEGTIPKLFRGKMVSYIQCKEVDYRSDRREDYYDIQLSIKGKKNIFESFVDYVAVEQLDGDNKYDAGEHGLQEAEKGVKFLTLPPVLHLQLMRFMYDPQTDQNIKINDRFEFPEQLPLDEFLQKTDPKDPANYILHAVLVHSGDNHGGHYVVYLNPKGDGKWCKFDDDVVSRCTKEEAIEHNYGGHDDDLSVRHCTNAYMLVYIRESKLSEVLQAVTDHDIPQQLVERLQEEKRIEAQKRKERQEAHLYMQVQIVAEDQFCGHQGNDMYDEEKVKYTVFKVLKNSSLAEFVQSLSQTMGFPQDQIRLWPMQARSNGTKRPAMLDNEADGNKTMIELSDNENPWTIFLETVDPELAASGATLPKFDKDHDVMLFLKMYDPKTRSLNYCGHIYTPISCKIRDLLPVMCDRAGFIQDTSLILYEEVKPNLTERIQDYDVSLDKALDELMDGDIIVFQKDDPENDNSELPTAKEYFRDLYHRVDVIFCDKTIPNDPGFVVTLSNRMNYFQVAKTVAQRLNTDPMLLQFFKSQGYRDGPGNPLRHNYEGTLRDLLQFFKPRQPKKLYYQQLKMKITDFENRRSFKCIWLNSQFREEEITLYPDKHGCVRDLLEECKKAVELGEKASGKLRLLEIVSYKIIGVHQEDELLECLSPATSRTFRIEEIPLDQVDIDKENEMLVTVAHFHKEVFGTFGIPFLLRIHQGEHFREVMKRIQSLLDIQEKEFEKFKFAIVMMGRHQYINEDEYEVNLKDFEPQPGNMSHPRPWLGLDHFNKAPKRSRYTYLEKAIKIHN
pIC50: −log10 of the molar value. Counter-ions that a name gives are not always drawn.
ASSAY_ENDPOINT: pIC50

Reference set (5 entries):
COMPOUND	pIC50
Cc1cc(Cl)cc(-c2ncnn3cc(Cn4c(=O)c(F)cn(C)c4=O)cc23)c1CC1CNC[C@H](C)O1 (single isomer, unassigned) [Example 108, hydrochloride]	> 6.30
Cc1cc(Cl)cc(-c2ncnn3cc(CN4C(=O)C5C(C4=O)C5(C)C)c(C)c23)c1C[C@@H]1CNCCO1 (stereo partly drawn) [Example 13, hydrochloride]	6.00 to 6.30
CC1(C)C2C(=O)N(Cc3cc4c(-c5cc(Cl)cc6c5N(C5CCNC5)CCO6)ncnn4c3)C(=O)C21 (stereo not drawn) [Example 55, hydrochloride]	> 6.30
Cc1cc(Cl)cc(-c2ncnn3cc(Cn4c(=O)ccn(C)c4=O)cc23)c1CC1CNC[C@H](C)O1 (stereo partly drawn) [Example 59, hydrochloride]	> 6.30
Cc1cc(Cl)cc(-c2ncnn3cc(CN4C(=O)C5C(C4=O)C5(C)C)cc23)c1OCC1CCNCC1 (stereo not drawn) [Example 48, hydrochloride]	> 6.30

Next compound, please.
Result for CC1(C)C2C(=O)N(Cc3cc4c(-c5cc(Cl)cc6ccn(C[C@@H]7CNCCO7)c56)ncnn4c3)C(=O)C21 (single isomer, unassigned) [Example 30, dihydrochloride] , tested on UniProtKB Q93009, pIC50: > 6.30

# credit: patent US20240150362A1
